# reported AC50; entries follow
Target: Alpha-1A adrenergic receptor (Homo sapiens); also: assay procedure not described here
Sequence (P35348 whole entry): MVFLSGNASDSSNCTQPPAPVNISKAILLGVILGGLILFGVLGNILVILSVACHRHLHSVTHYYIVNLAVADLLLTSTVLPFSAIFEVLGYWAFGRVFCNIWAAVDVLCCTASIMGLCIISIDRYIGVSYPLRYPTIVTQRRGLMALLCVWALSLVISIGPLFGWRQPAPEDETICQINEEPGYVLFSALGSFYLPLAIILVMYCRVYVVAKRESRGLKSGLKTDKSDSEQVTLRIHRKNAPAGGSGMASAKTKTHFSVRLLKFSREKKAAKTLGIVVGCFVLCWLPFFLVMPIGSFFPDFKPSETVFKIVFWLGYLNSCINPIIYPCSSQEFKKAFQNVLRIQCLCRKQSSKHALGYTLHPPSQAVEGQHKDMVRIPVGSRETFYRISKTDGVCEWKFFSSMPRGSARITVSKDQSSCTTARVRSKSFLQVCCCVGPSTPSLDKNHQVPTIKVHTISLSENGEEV
Assay type: functional, cell-based

>>> test_result("CC(C)Nc1cccnc1N1CCN(C(=O)c2cc3cc(NS(C)(=O)=O)ccc3[nH]2)CC1")
"> 30 µM"
>>> test_result("Nc1ccn(C[C@@H](CO)OCP(=O)(O)O)c(=O)n1")
"> 30 µM"
>>> test_result("N[C@@H](Cc1ccc(O)cc1)C(=O)O")
"> 30 µM"

// switching to the query compound
Request: Looking for the measured AC50 of CC(=O)OCC(=O)[C@@]1(O)CC[C@H]2[C@@H]3C[C@H](C)C4=CC(=O)C=C[C@]4(C)[C@H]3[C@@H](O)C[C@@]21C [METHYLPREDNISOLONE ACETATE] , can you help?
Response: > 30 µM
